Tested on: UUO model of kidney fibrosis
Experiment: Unilateral ureteral obstruction (UUO) model of kidney fibrosis: kidney collagen 1A1 and collagen 3A1 expression by real-time PCR
Assay type: in vivo, mice
Conditions: Table K; group mean; UUO mice, 20 mg/kg at days -3, -1, +5; kidney at day 11; UUO-PBS mean 114.9
assay-metric: Collagen 1A1 (Normalized Expression) Mean

# residue-string, measured
data = [
    ("AECSAETECSAEGETECSTEGEAEUSAEAEGECSTEAE (ACATCAGTCTGATAAGCTA; anti-miR; sugar and backbone modifications, code letters not given here, further chemistry not given here) [Compound 25072]", 113.8),
    ("UECEAFAFCFAFUFCFAFGFUFCEUEGEAFUFAFAFGFCFUEAE (antisense TCAACATCAGTCTGATAAGCTA; listed as DNA, chemistry not fully specified) [Compound 25919, reference compound]", 86.6),
]
